- TESTED_ON: rat D4 receptor (Rattus norvegicus)
- Sequence (P30729 whole entry): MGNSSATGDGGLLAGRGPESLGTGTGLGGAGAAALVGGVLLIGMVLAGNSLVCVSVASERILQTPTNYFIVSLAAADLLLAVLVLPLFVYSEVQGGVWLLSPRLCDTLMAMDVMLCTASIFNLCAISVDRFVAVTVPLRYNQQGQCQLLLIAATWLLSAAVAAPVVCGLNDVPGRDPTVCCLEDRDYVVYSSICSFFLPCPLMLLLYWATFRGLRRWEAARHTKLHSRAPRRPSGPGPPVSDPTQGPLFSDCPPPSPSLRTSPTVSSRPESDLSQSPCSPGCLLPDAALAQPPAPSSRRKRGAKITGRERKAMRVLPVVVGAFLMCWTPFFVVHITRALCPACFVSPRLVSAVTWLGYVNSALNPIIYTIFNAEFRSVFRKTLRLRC
- EXPERIMENTAL_PROTOCOL: biochemical
- CONDITION_CONTEXT: apparent Ki, D4 receptor
VALUE_KIND: pKi
pKi field: float, defined as -log10 of concentration (mol/L).

Form field - read-out: pKi; system: rat D4 receptor (Rattus norvegicus); submitted item: CCc1cc(Cl)c(OC)c(C(=O)NC[C@@H]2CCCN2CC)c1O [eticlopride]
7.57
